I'd be grateful if you could share measured pIC50 for these entries.
biological target: TEL-KIT fusion gene transfected cells (Ba/F3); assay: Suppression of proliferation of TEL-KIT fusion gene transfected Ba/F3 cells; conditions: read-out: KIT/BaF3 proliferation inhibition (IC50); TEL-KIT expressing Ba/F3 cells, 72 hours, final concentration 0.1 to 10,000 nM;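 note: viable cells quantified via formazan from tetrazolium reduction, inhibition scaled with 0.1% DMSO control as 0% and medium-only blank as 100%, IC50 from two-parameter logistic fit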
Sequence (P10721 26-976 limits assumed, change not shown): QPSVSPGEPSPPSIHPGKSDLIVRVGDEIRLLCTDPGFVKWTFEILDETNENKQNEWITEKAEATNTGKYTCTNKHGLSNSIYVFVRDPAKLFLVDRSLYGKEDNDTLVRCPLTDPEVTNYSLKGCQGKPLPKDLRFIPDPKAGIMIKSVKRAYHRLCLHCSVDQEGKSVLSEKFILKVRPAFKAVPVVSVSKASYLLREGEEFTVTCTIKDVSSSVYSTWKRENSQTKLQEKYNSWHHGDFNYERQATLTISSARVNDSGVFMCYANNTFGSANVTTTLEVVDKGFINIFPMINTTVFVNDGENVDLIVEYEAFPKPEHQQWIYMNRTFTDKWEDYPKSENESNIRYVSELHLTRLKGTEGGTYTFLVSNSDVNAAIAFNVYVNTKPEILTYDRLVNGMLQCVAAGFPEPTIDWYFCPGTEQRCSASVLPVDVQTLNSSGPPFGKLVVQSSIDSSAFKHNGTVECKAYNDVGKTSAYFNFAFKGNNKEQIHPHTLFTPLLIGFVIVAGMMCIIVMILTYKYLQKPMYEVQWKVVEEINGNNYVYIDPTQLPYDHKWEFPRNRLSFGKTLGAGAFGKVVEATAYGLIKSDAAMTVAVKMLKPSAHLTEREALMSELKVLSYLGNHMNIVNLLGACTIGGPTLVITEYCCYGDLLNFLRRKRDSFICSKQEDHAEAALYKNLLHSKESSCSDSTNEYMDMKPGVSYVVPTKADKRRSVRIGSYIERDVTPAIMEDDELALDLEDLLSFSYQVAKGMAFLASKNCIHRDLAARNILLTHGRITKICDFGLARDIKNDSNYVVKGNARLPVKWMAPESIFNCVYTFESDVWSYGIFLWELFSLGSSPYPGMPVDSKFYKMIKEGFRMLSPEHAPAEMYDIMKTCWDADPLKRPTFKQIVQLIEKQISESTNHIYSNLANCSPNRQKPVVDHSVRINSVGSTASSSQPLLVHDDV
Please keep in mind that pIC50 is minus log10 of the molar concentration; only the number is needed.

**Q:** Which pIC50 is reported for this molecule? Cc1ccc(C(=O)N[C@H]2CCCC[C@@H]2O)cc1NCc1cnc(N)nc1
**A:** 6.15

**Q:** What measured pIC50 goes with Cc1ccc(C(=O)N[C@H]2CCCC[C@@H]2O)cc1NC(=O)c1cncc(-c2cccc(C(F)(F)F)c2)c1 ?
**A:** 6.05

**Q:** Report pIC50 for COc1ccc(-c2cncc(C(=O)Nc3cc(C(=O)N[C@H]4CCCC[C@@H]4O)ccc3C)c2)c(F)c1 please.
**A:** 6.06

**Q:** Could you tell me which pIC50 is on file for Cc1ccc(C(=O)N[C@H]2CCCC[C@@H]2O)cc1NC(=O)c1cncc(NCC2CC2)c1 ?
**A:** 5.89

**Q:** // returns reported pIC50 for input Cc1ccc(C(=O)N[C@H]2CCCC[C@@H]2O)cc1NC(=O)c1cncc(-c2ccc(F)cc2)c1
**A:** 6.00

Cited source for all entries: patent US12509424B2
